System: 677734-321-R-J1-PDC complex spheroid viability
Assay: Anticancer human tumor 677734-321-R-J1-PDC patient-derived soft tissue sarcoma cell line growth inhibition [POLQ]; active means viability on the fitted dose curve at most 10% of control; inactive means the rest
Conditions: second compound 0.1 µM; first compound 1 µM
Description: Multicellular complex tumor spheroid response to Polymerase (POL) inhibitors (novobiocin, ART-558, RP6685) in combination with a variety of drugs and investigational agents in selected tumor cell lines The POL inhibitors (novobiocin, ART-558, and RP6685) were evaluated both individually and in combination with standard of care and investigational anticancer small molecules within a complex spheroid model of solid tumors. . […]
// allowed return values: active, inactive

Previously resolved entries follow.
molecule	categoryLabel
O=C(c1cc(Cc2n[nH]c(=O)c3ccccc23)ccc1F)N1CCN(C(=O)C2CC2)CC1 + Nc1ccc(C#CCN(C(=O)Cc2ncc(C(F)(F)F)cc2C(F)(F)F)c2ccc(F)cc2)nn1	inactive
CC1COCCN1c1cc(C2(S(C)(=N)=O)CC2)nc(-c2ccnc3[nH]ccc23)n1 (stereo unspecified) + Nc1ccc(C#CCN(C(=O)Cc2ncc(C(F)(F)F)cc2C(F)(F)F)c2ccc(F)cc2)nn1	inactive
CCc1cc2c(N3CCc4c(cc(Cn5ccnc5)cc4-c4cn(C)nc4C(F)(F)F)C3=O)ccnc2c(OC)n1 + Nc1ccc(C#CCN(C(=O)Cc2ncc(C(F)(F)F)cc2C(F)(F)F)c2ccc(F)cc2)nn1	inactive
CNCc1ccc(-c2[nH]c3cc(F)cc4c3c2CCNC4=O)cc1 + Cc1cccc(N(C)C(=O)C2C(O)CCN2c2nc(C)cc(C(F)(F)F)c2C#N)c1	inactive
CCc1cc2c(N3CCc4c(cc(Cn5ccnc5)cc4-c4cn(C)nc4C(F)(F)F)C3=O)cc(C)nc2c(OC)n1 + COC1C(OC(N)=O)C(O)C(Oc2ccc3c(O)c(NC(=O)c4ccc(O)c(CC=C(C)C)c4)c(=O)oc3c2C)OC1(C)C	inactive

# evaluate next
Task item: Kindly provide the recorded test outcome for the following molecule: COc1cccc(OCCCN)c1-c1cc(Nc2cnc(C#N)cn2)n[nH]1 + Nc1ccc(C#CCN(C(=O)Cc2ncc(C(F)(F)F)cc2C(F)(F)F)c2ccc(F)cc2)nn1
Reply: active

====

test system: 677734-321-R-J1-PDC complex spheroid viability; experiment: Anticancer human tumor 677734-321-R-J1-PDC cell line growth inhibition [POLQ]; details: second compound 0.0316 µM; first compound 0.316 µM; active means viability on the fitted dose curve at most 10% of control; inactive means the rest;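 further: spheroids exposed to compounds for one week; 100% = vehicle DMSO treated spheroids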
// allowed return values: yes (1) (active), no (0) (inactive)

compound	categoryLabel
CC1COCCN1c1cc(C2(S(C)(=N)=O)CC2)nc(-c2ccnc3[nH]ccc23)n1 (stereo not given) + COC1C(OC(N)=O)C(O)C(Oc2ccc3c(O)c(NC(=O)c4ccc(O)c(CC=C(C)C)c4)c(=O)oc3c2C)OC1(C)C	no (0)
COc1cc2cc(C(=O)CCC(=O)O)sc2cc1OC + COC1C(OC(N)=O)C(O)C(Oc2ccc3c(O)c(NC(=O)c4ccc(O)c(CC=C(C)C)c4)c(=O)oc3c2C)OC1(C)C	no (0)
C=CC(=O)N1CCN(c2nc(=O)n(-c3c(C)ccnc3C(C)C)c3nc(-c4c(O)cccc4F)c(F)cc23)C(C)C1 (stereo not given) + COC1C(OC(N)=O)C(O)C(Oc2ccc3c(O)c(NC(=O)c4ccc(O)c(CC=C(C)C)c4)c(=O)oc3c2C)OC1(C)C	no (0)
COc1ccc([C@@H](O)c2cc(-c3ncnc4cc(N5CCOCC5)ccc34)c(F)cc2Cl)nn1 + COC1C(OC(N)=O)C(O)C(Oc2ccc3c(O)c(NC(=O)c4ccc(O)c(CC=C(C)C)c4)c(=O)oc3c2C)OC1(C)C	no (0)
COc1ccc([C@@H](O)c2cc(-c3ncnc4cc(N5CCOCC5)ccc34)c(F)cc2Cl)nn1 + Nc1ccc(C#CCN(C(=O)Cc2ncc(C(F)(F)F)cc2C(F)(F)F)c2ccc(F)cc2)nn1	no (0)

Task item: Kindly provide the recorded test outcome for the following compound: CCCS(=O)(=O)Nc1ccc(F)c(C(=O)c2c[nH]c3ncc(-c4ccc(Cl)cc4)cc23)c1F + Cc1cccc(N(C)C(=O)C2C(O)CCN2c2nc(C)cc(C(F)(F)F)c2C#N)c1
Reply: no (0)

Task item: CC(C)n1c(=O)n(C)c2cnc3cc(F)c(-c4ccc(OCCCN5CCCCC5)nc4)cc3c21 + COC1C(OC(N)=O)C(O)C(Oc2ccc3c(O)c(NC(=O)c4ccc(O)c(CC=C(C)C)c4)c(=O)oc3c2C)OC1(C)C , same question.
Reply: no (0)

Task item: CNCc1ccc(-c2[nH]c3cc(F)cc4c3c2CCNC4=O)cc1 + Nc1ccc(C#CCN(C(=O)Cc2ncc(C(F)(F)F)cc2C(F)(F)F)c2ccc(F)cc2)nn1 , same question.
Reply: no (0)

Task item: COc1cccc2c1C(=O)c1c(O)c3c(c(O)c1C2=O)CC(O)(C(=O)CO)CC3OC1CC(N)C(O)C(C)O1 (stereo not given) + Cc1cccc(N(C)C(=O)C2C(O)CCN2c2nc(C)cc(C(F)(F)F)c2C#N)c1 , same question.
Reply: yes (1)

Task item: CCc1cc2c(N3CCc4c(cc(Cn5ccnc5)cc4-c4cn(C)nc4C(F)(F)F)C3=O)ccnc2c(OC)n1 + Nc1ccc(C#CCN(C(=O)Cc2ncc(C(F)(F)F)cc2C(F)(F)F)c2ccc(F)cc2)nn1 , same question.
Reply: no (0)
